# assaySystem: CYP2D6 (Homo sapiens, UniProt P10635)
# Sequence (P10635 whole entry): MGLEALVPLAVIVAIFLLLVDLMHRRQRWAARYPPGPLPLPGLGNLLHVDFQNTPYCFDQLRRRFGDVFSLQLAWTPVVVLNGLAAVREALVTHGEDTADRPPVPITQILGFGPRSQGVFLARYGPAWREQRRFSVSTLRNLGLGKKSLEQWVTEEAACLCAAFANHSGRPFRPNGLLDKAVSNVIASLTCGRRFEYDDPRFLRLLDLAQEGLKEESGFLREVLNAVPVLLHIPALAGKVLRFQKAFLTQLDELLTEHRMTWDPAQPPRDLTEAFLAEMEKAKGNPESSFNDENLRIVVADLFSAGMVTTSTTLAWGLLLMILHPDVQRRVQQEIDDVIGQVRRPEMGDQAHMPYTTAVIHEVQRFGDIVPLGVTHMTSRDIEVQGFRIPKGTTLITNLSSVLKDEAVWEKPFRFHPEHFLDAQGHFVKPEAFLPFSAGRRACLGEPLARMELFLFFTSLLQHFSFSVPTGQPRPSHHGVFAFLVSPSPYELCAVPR
# experimentalDetails: biochemical
# conditionLabel: IC50 (μM) of honokiol, no preincubation, Bufuralol 1'-hydroxylation, 5.0 μM bufuralol, pooled HLM (H161)
recordedMetric: IC50 (µM)
Answers are plain numbers, in µM.

Form: Entry = C=CCc1ccc(O)c(-c2ccc(O)c(CC=C)c2)c1 | System = CYP2D6 (Homo sapiens, UniProt P10635) | IC50 = ____
14
